Target: OCTN2 (organic cation/carnitine transporter 2) (Rattus norvegicus)
Sequence (O70594 whole entry): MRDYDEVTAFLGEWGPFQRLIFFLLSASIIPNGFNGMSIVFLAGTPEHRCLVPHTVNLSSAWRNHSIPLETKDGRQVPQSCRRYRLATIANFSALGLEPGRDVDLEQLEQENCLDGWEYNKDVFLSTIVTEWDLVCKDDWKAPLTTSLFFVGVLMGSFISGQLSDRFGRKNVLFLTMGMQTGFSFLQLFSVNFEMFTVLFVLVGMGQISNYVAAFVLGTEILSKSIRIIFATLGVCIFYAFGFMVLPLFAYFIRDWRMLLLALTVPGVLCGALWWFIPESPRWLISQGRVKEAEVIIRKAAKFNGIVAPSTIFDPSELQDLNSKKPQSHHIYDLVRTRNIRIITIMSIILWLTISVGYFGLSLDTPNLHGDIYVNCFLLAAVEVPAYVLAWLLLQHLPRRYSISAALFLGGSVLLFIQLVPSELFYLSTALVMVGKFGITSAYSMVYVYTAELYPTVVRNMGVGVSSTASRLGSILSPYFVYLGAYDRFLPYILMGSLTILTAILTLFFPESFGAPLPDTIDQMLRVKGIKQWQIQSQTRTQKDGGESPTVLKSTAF
Experiment: TP_TRANSPORTER: inhibition of Carnitine uptake (Carnitine: 0.02 uM, Cefluprenam: 2500 uM) in OCTN2-expressing HeLa cells
Assay type: functional, cell-based
Set-up: scale not given: the % may be the effect or the level left
Conditions: human, probe carnitine (0.02 uM), read-out: Activity
property: activity at 2500 µM (%)
One number for each entry, in %.

Enquiry: Given CC[N+](C)(C/C=C/C1=C(C(=O)[O-])N2C(=O)[C@@H](NC(=O)/C(=N\OCF)c3nsc(N)n3)[C@H]2SC1)CC(N)=O (stereo partly specified) [CEFLUPRENAM] , state its recorded activity at 2500 µM.
Return: 76
